I'd appreciate it if you could supply max response values for the items below.
Test system: NIH3T3
Assay: Cytotoxic Profiling of Annotated Libraries Using Quantitative High-Throughput Screening (AID 1296008); further: on the % scale 0 is the no-effect control and ±100 the full control effect; nearly all actives have a fitted effect of over 60% in size
Conditions: Five cell lines viability, CellTiter-Glo ATP luminescence, 48-72 h; hits give low values
Results filed as inconclusive are left out. Active and inactive are the calls of the source. The call rests on the fitted dose curve; in most records, active means well fitted inhibition curve with a large enough effect; inconclusive means small, poorly fitted or top-dose-only effect; inactive means flat fitted curve, though single readings scatter.

compound: CCCCOc1ccc(S(=O)(=O)n2c(C)nc3ccccc32)cc1
max response: -1.64% (inactive)

Here are 8 compounds. What values of max response were reported for them?
1. O=C(NCCCNC(=O)c1ccc[nH]c1=O)c1cc(-c2ccccc2)on1
2. CC(C)/C=C1\NC(=O)C(C(C)C)n2c1nc1ccccc1c2=O (stereo not given)
3. COc1ccc(-c2cnc3c(-c4cccc5ncccc45)cnn3c2)cc1
4. C=C1C(=O)O[C@@H]2[C@H]1CC[C@H](C)[C@]1(CCC(=O)O1)C2(C)O (stereo not given in full)
5. N#Cc1ccc(N2N=C3c4ccc(C(=O)O)cc4CC[C@@H]3[C@@H]2C2CCCC2)cc1Cl
6. C#Cc1cccc(Nc2nc3cc(C(=O)O)ccc3c3cncnc23)c1
7. O=C(Nc1ccc(CN2CCOCC2)cc1)c1ccc(-c2cccc(Cl)c2)o1
8. OC[C@H]1O[C@@H](OC/C=C/c2ccc(O)cc2)[C@H](O)[C@@H](O)[C@@H]1O

Completion:
["2.72% (inactive)", "-0.19% (inactive)", "-19.7% (inactive)", "-19.6% (inactive)", "-3.29% (inactive)", "-50.8% (inactive)", "1.97% (inactive)", "-11.1% (inactive)"]

Prompt: Given `Cc1cc2sc(NC(=O)Cc3ccccc3)nc2cc1Cl` , state its recorded max response.
Completion: 0.0198% (inactive)
